- assay-comment: Increased percentage of formazan production in drug treated virus infected cells to equal 50% of control drug free uninfected cells on serotype 14
Classify: Yes when EC50 is strictly less than 50 nM; No when EC50 is not.

Record excerpt, results attached:
CCOC(=O)/C=C/[C@H](CCC(N)=O)NC(=O)[C@@H](CC(=O)[C@@H](NC(=O)SCc1ccccc1)C(C)C)Cc1ccccc1
No
CCOC(=O)/C=C/[C@H](CCC(N)=O)NC(=O)[C@@H](CC(=O)[C@H](CC(C)C)NC(=O)SCc1ccccc1)Cc1ccccc1
No
CCOC(=O)/C=C/[C@H](CCC(N)=O)NC(=O)[C@@H](CC(=O)[C@@H](NC(=O)SC1CCCC1)C(C)C)Cc1ccccc1
Yes
CCOC(=O)/C=C/[C@H](CCC(N)=O)NC(=O)[C@@H](CC(=O)[C@H](CC(C)C)NC(=O)SC1CCCC1)Cc1ccc(F)cc1
No
CCOC(=O)/C=C/[C@H](CCC(N)=O)NC(=O)[C@@H](CC(=O)[C@H](CC(C)C)NC(=O)OCc1ccccc1)Cc1ccccc1
No

Say whether its EC50 is strictly beneath 50 nM. Entry: `CCOC(=O)/C=C/[C@H](CCC(N)=O)NC(=O)[C@@H](CC(=O)[C@H](CC(C)C)NC(=O)SC1CCCC1)Cc1ccccc1`
No

Say whether its EC50 is strictly beneath 50 nM. Entry: `CCOC(=O)/C=C/[C@H](CCC(N)=O)NC(=O)[C@@H](CC(=O)[C@@H](NC(=O)SC1CCCC1)C(C)C)Cc1ccc(F)cc1`
Yes

Say whether its EC50 is strictly beneath 50 nM. Entry: `CCOC(=O)/C=C/[C@H](CCC(N)=O)NC(=O)[C@@H](CC(=O)[C@@H](NC(=O)SC1CCCC1)C(C)C)Cc1ccc(C)cc1`
Yes

----------
EC50 for assorted molecules
- assay-comment: The EC50 was calculated as the concentration of drug that increased the percentage of formazan production in drug treated,virus infected cells to 50% of that produced by drug free uninfected cells on serotype 10.
Reply numerically in nM, unit not repeated.

CCOC(=O)/C=C/[C@H](CCC(N)=O)NC(=O)[C@@H](CC(=O)[C@H](CC(C)C)NC(=O)SC1CCCC1)Cc1ccc(C)cc1
1400
CCOC(=O)/C=C/[C@H](CCC(N)=O)NC(=O)[C@@H](CC(=O)[C@@H](NC(=O)SC1CCCC1)C(C)C)Cc1ccc(C)cc1
60
CCOC(=O)/C=C/[C@H](CCC(N)=O)NC(=O)[C@@H](CC(=O)[C@@H](NC(=O)SC1CCCC1)C(C)C)Cc1ccccc1
35
CCOC(=O)/C=C/[C@H](CCC(N)=O)NC(=O)[C@@H](CC(=O)[C@@H](NC(=O)SC1CCCC1)C(C)C)Cc1ccc(C(F)(F)F)cc1
160

Here's the next entry for you.
I'd like to know its EC50. The molecule in question is `CCOC(=O)/C=C/[C@H](CCC(N)=O)NC(=O)[C@@H](CC(=O)[C@H](CC(C)C)NC(=O)SC1CCCC1)Cc1ccc(F)cc1`
1600

----------
- assay-comment: The EC50 was calculated as the concentration of drug that increased the percentage of formazan production in drug treated, virus infected cells to 50% of that produced by drug free uninfected cells on serotype 1A.
endpoint-label: EC50 (µM)
Reply numerically in µM, unit not repeated.

I'd like to know its EC50. The compound in question is `CCOC(=O)/C=C/[C@H](CCC(N)=O)NC(=O)[C@@H](CC(=O)[C@H](CC(C)C)NC(=O)SC1CCCC1)Cc1ccc(C)cc1`
0.56
